Assay: Inhibition of gamma-secretase
Property: IC50 (nM)
Form entry: value (nM) — number only.

Note down IC50 recorded for O=S(=O)(c1ccc(Cl)cc1)N1[C@@H]2CCC[C@H]1C[C@@H](O)C2 (stereo in doubt; 8b) 600

Give recorded IC50. O=S(=O)(c1ccc(Cl)cc1)N1C2CCCC1c1c(C(F)(F)F)n[nH]c1C2 (stereo not given) 70

For the compound CN1CCCC[C@@H](N(Cc2ccc(Br)cc2)S(=O)(=O)c2ccc(Cl)cc2)C1=O , report IC50. 1700

Look up and state reported IC50 for O=C1NCCCC[C@H]1N(Cc1ccc(Br)cc1)S(=O)(=O)c1ccc(Cl)cc1 25

Provide one value: measured IC50 of O=S(=O)(c1ccc(Cl)cc1)N1C2CCCC1c1cn[nH]c1C2 (stereo not given) 4

Report IC50, nothing else, for this compound: Cc1ccc(S(=O)(=O)C(=O)NC2CC3CCCC(C2)N3S(=O)(=O)c2ccc(Cl)cc2)cc1 (racemic) 8000

Query IC50 for O=S(=O)(c1ccc(Cl)cc1)N1C2CCCC1CC(=NO)C2 (racemic) 3300

Give IC50 for Nc1ncc2c(n1)CC1CCCC2N1S(=O)(=O)c1ccc(Cl)cc1 (stereo not given) 5500

Identify measured IC50 associated with O=S(=O)(c1ccc(Cl)cc1)N1C2CCCC1c1cncnc1C2 (stereo not given) 4700

Read the entry Nc1n[nH]c2c1C1CCCC(C2)N1S(=O)(=O)c1ccc(Cl)cc1 (stereo not given) and write its reported IC50. 105

Report measured IC50; entry is C[C@@H]1CCC[C@H](C)N1S(=O)(=O)c1ccc(Cl)cc1 1700

Identify measured IC50 corresponding to O=S(=O)(c1ccc(Cl)cc1)N1C2CCCC1c1c(C(F)F)n[nH]c1C2 (stereo not given) 85

Give IC50 for the following compound: COc1ncc2c(n1)CC1CCCC2N1S(=O)(=O)c1ccc(Cl)cc1 (stereo not given) 9000

Look up and state reported IC50 for O=S(=O)(c1ccc(Cl)cc1)N1[C@@H]2CCC[C@H]1C[C@@H](O)C2 (stereo in doubt; 8a) 3000

// Input: CC(=O)Nc1n[nH]c2c1C1CCCC(C2)N1S(=O)(=O)c1ccc(Cl)cc1 (stereo not given) . Output its IC50 only. 70

---

Experiment: Inhibition of gamma-secretase
pIC50: −log10 of the molar value.
Property: pIC50

Please list pIC50 recorded for the compound CSc1ncc2c(n1)CC1CCCC2N1S(=O)(=O)c1ccc(Cl)cc1 (stereo not given) < 5.00

Specify measured pIC50 for CNC1CC2CCCC(C1)N2S(=O)(=O)c1ccc(Cl)cc1 (racemic) . < 5.00

Check the records and state pIC50 for Nc1nc2c(s1)C1CCCC(C2)N1S(=O)(=O)c1ccc(Cl)cc1 (stereo not given) < 5.00

Find the measured pIC50 of O=S(=O)(c1ccc(Cl)cc1)N1C2CCCC1c1cnc(O)nc1C2 (stereo not given) and report it. < 5.00

Supply measured pIC50 of Cn1ncc2c1CC1CCCC2N1S(=O)(=O)c1ccc(Cl)cc1 (stereo not given) in your reply. < 5.00
